- TARGET OR TEST SYSTEM: Alpha-1A adrenergic receptor (Bos taurus)
- Sequence (P18130 whole entry): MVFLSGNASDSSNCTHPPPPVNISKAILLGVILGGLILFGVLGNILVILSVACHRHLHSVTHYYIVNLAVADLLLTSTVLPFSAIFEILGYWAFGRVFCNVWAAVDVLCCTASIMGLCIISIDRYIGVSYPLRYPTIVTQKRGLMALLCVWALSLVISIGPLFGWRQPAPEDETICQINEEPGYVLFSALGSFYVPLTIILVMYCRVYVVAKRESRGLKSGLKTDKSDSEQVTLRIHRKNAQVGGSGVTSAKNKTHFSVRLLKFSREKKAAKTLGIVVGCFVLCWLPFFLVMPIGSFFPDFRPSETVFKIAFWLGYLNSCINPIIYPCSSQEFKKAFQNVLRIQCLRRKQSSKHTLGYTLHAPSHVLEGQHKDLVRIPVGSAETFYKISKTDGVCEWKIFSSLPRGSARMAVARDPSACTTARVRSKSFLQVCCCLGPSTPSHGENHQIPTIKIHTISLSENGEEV
- TEST DESCRIPTION: Inhibition of [3H]prazosin binding to Alpha-1 adrenergic receptor in bovine frontal cortex
- Type: tissue-based
OBSERVED PROPERTY: pKi
// pKi is dimensionless: -log10 of concentration (M)

Observed pKi on Alpha-1A adrenergic receptor (Bos taurus), entry O=C(CCCN1CCN(C2CCCc3ccccc32)CC1)c1ccc(F)cc1 (stereo unspecified) , equals 7.74

###

- TARGET OR TEST SYSTEM: D(1A) dopamine receptor (Bos taurus, UniProt Q95136)
- Sequence (Q95136 whole entry): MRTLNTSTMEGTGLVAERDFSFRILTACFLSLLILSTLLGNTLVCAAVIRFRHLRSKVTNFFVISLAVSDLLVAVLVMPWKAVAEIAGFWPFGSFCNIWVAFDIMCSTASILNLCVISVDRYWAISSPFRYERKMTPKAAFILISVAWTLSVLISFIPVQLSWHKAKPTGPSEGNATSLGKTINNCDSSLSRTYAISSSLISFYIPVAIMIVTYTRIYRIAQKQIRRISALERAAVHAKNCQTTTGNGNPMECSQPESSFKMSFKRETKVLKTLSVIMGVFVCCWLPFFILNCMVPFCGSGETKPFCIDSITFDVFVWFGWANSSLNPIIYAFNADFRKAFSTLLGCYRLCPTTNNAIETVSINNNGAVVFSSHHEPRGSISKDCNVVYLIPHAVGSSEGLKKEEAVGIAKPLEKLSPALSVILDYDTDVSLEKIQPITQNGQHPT
- TEST DESCRIPTION: Inhibition of [3H]SCH-23390 binding to Dopamine receptor D1 of bovine striatum
- Type: tissue-based
OBSERVED PROPERTY: pKi
// pKi is dimensionless: -log10 of concentration (M)

O=C(CCCN1CCN(C2CCCc3ccccc32)CC1)c1ccc(F)cc1 (stereo not drawn)    6.00
O=C(NCCN1CCN(C2CCCc3ccccc32)CC1)c1ccc(Cl)cc1 (stereo in doubt; (-)-34)    4.57

With those in mind, consider the next compound.
Value of pKi reported for the compound O=C(NCCN1CCN(C2CCCc3ccccc32)CC1)c1ccccc1 (stereo in doubt; 32) is 4.66

###

- TARGET OR TEST SYSTEM: D(2) dopamine receptor (Bos taurus)
- Sequence (P20288 whole entry): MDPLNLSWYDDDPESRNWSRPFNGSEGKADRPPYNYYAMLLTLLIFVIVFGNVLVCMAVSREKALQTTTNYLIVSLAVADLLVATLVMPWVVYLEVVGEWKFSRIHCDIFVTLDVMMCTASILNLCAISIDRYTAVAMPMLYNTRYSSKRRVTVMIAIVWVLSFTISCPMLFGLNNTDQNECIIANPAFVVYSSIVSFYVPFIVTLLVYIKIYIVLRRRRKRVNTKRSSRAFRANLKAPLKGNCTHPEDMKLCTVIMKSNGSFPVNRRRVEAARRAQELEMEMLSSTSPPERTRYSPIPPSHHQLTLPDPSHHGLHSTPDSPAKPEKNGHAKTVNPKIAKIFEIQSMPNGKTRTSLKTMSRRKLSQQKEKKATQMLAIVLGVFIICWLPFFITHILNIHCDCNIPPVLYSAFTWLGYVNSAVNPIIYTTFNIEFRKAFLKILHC
- TEST DESCRIPTION: Inhibition of [3H]raclopride binding to Dopamine receptor D2 of bovine striatum
// reported Ki per item

Would you please look over these solved cases?
O=C(NCCN1CCN(C2CCCc3ccccc32)CC1)c1ccc(Cl)cc1 (stereo in doubt; (+)-34)    0.7 µM
O=C(NCCN1CCN(C2CCCc3ccccc32)CC1)c1ccc(Cl)cc1 (stereo in doubt; (-)-34)    0.48 µM
O=C(NCCN1CCN(C2CCCc3ccccc32)CC1)c1ccc(F)cc1 (single isomer, unassigned; (-))    0.07 µM
O=C1CC2(CCCC2)CC(=O)N1CCCCN1CCN(c2ncccn2)CC1 [BUSPIRONE]    0.044 µM

With those in mind, consider the next molecule.
Value of Ki reported for the molecule CCCN(CCC)C1CCc2cccc(O)c2C1 (stereo not given) [8-OH-DPAT] is 2.38 µM

###

// reported Ki per item
- TEST DESCRIPTION: Inhibition of [3H]ketanserin binding to 5-hydroxytryptamine 2 receptor of bovine frontal cortex
- Assay type: tissue-based, Bos taurus
- MEASUREMENT PARAMETERS: read-out: Ki
Quick note: give the figure in nM, leave out the unit.

O=C(CCCN1CCN(C2CCCc3ccccc32)CC1)c1ccc(F)cc1 (configuration not stated)    66

Value of Ki reported for the molecule O=C(NCCN1CCN(C2CCCc3ccccc32)CC1)c1ccc(F)cc1 (single isomer, unassigned; (-)) is 1380

Value of Ki reported for the molecule O=C(NCCN1CCN(C2CCCc3ccccc32)CC1)c1ccc(F)cc1 (stereo in doubt; 33) is 1180

Value of Ki reported for the molecule CCCN(CCC)C1CCc2cccc(O)c2C1 (configuration not stated) is 1100

Value of Ki reported for the molecule O=C(NCCN1CCN(C2CCCc3ccccc32)CC1)c1ccc(F)cc1 (single isomer, unassigned; (+)) is 1300

Value of Ki reported for the molecule O=C(NCCN1CCN(C2CCCc3ccccc32)CC1)c1ccccc1 (stereo in doubt; 32) is 710

Value of Ki reported for the molecule O=C1CC2(CCCC2)CC(=O)N1CCCCN1CCN(c2ncccn2)CC1 is 1250

FYI, the data here is from ChEMBL document CHEMBL1129976.
